inhibition listing for selected molecules.
Test: endothelial E-selectin expression blockers – imaging, HUVEC, immunofluorescence, MLSMR starter and 10KST1 sets, primary screen (AID 487);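 note: signal is fraction of cell area covered by stained E-selectin grains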
Settings: HUVEC TNFalpha-induced E-selectin immunofluorescence imaging, at 2 µM; hits give high values
Expressed in %, but write only the number.

Below: 3 molecules and their reported inhibition.
[Q] Using the record for OC(c1ccc(F)cc1)C(c1ccccc1)N1CCOCC1 (centres undefined) , report its inhibition.
[A] 8

[Q] # lookup: inhibition of CCCCCCn1c(O)c(C=Nc2c(C)n(C)n(-c3ccccc3)c2=O)c(=O)[nH]c1=O
[A] -82.5

[Q] # inhibition lookup, item COP(=O)(OC)C(O)C(Cl)(Cl)Cl (centres undefined)
[A] -58.1

***
[Q] Item under review: COc1cccc(-n2c(O)c(C=NCCN3CCOCC3)c(=O)[nH]c2=O)c1 . Reported inhibition?
[A] -10.1
